Some compounds, each annotated with its measured EC50.
- Target: glutathione-S-transferase (GST) tagged LXRalpha LBD (ligand binding domain) (Homo sapiens)
- Construct: purchased Invitrogen pv4655
- Sequence (Q13133 209-447 limits assumed): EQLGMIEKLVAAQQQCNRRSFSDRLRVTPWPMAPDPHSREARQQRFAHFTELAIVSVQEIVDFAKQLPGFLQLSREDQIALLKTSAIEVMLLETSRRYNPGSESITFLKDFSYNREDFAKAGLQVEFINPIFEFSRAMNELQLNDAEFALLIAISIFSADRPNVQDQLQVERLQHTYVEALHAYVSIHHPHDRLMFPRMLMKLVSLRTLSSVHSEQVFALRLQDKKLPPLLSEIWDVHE
- Assay summary: LanthaScreen TR-FRET Liver X Receptor Coactivator Assay, co-activator recruitment to LXRalpha LBD
- Type: biochemical
- Particulars: potency (Inflection Point, IP), co-activator recruitment to LXRalpha LBD, in relation to T0901317; read-out: LXR alpha IP
State the result as a value with its unit after it.

| Compound | EC50 |
| --- | --- |
| Cc1nc(N2CCC(CC3CCN(C(=O)C(O)(c4cccc(Cl)c4)C(F)(F)F)CC3)CC2)ccc1C(=O)N(C)C (stereo not drawn) | 508 nM |

Exam item: Recorded EC50 of "CN(C)C(=O)c1ccc(N2CCC(SC3CCN(C(=O)[C@](O)(c4cccc(OC(F)(F)F)c4)C(F)(F)F)CC3)CC2)nc1Cl" , please.
Marked response: 546 nM

Exam item: Recorded EC50 of CN(C)C(=O)c1ccc(N2CCC(CC3CCN(C(=O)C(O)(c4cccc(Cl)c4)C(F)(F)F)CC3)CC2)cc1Cl (stereo not drawn) , please.
Marked response: 140 nM

###

- Target: glutathione-S-transferase (GST) tagged LXRbeta LBD (ligand binding domain) (Homo sapiens, UniProt P55055)
- Construct: purchased Invitrogen pv4658.pps
- Sequence (P55055 222-460 limits assumed): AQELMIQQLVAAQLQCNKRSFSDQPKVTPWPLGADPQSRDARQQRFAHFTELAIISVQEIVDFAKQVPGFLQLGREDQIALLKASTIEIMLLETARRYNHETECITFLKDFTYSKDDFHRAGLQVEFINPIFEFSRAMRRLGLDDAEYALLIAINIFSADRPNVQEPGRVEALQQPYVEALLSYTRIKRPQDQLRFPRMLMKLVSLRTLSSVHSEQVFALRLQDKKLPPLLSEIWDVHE
- Assay summary: LanthaScreen TR-FRET Liver X Receptor Coactivator Assay, co-activator recruitment to LXRbeta LBD
- Type: biochemical
- Particulars: efficacy at max dose, in relation to reference dual agonist T0901317; read-out: LXR beta Activity @ max dose (%)
Metric name: Emax

Exam item: Recorded Emax of CN(C)C(=O)c1ccc(N2CCC(CC3CCN(C(=O)C(F)(F)c4ccc(F)cc4)CC3)CC2)nc1Cl [Example 7-85] , please.
Marked response: 29%

Exam item: Recorded Emax of CC(C)c1cccc([C@@](O)(C(=O)N2CCC(CC3CCN(c4ccc(C(=O)N(C)C)cc4)CC3)CC2)C(F)(F)F)c1 [Example 2-125] , please.
Marked response: 64%

Exam item: Recorded Emax of CN(C)C(=O)c1ccc(N2CCC(CC3(C)CCN(C(=O)[C@](O)(c4cccc(Cl)c4)C(F)(F)F)CC3)CC2)cc1Cl [Example 2-47] , please.
Marked response: 49%

Exam item: Recorded Emax of CN(C)C(=O)c1ccc(N2CCC(CC3CCN(C(=O)[C@](O)(c4cccc(F)c4)C(F)(F)F)CC3)CC2)nc1Cl [Example 7-72] , please.
Marked response: 91%

Exam item: Recorded Emax of Cc1cc(N2CCC(CC3CCN(C(=O)[C@](O)(c4cccc(Cl)c4)C(F)(F)F)CC3)CC2)ccc1C(=O)N(C)C [Example 2-159] , please.
Marked response: 65%

###

- Target: glutathione-S-transferase (GST) tagged LXRbeta LBD (ligand binding domain) (Homo sapiens, UniProt P55055)
- Construct: purchased Invitrogen pv4658.pps
- Assay summary: LanthaScreen TR-FRET Liver X Receptor Coactivator Assay, co-activator recruitment to LXRbeta LBD
- Format: biochemical
- Particulars: potency (Inflection Point, IP), co-activator recruitment to LXRbeta LBD, in relation to T0901317; read-out: LXR beta IP
Some compounds, each annotated with its measured pEC50.
Just so you know, pEC50 here is -log10 of the concentration in molar units; reply with that number alone.

Recorded results for 3 compounds are shown here.
| Compound | pEC50 |
| --- | --- |
| CN(C)C(=O)c1ccc(N2CCC(CC3(C)CCN(C(=O)[C@](O)(c4cccc(OC(F)(F)F)c4)C(F)(F)F)CC3)CC2)cc1Cl [Example 2-51] | 7.49 |
| Cc1cc(N2CCC(CC3CCN(C(=O)[C@](O)(c4cccc(OC(C)C)c4)C(F)(F)F)CC3)CC2)ccc1C(=O)N(C)C [Example 2-147] | 7.72 |
| CN(C)C(=O)c1ncc(N2CCC(CC3CCN(C(=O)C(O)(c4cccc(F)c4)C(F)(F)F)CC3)CC2)cc1Cl (stereo not shown) [Example 2-7] | 7.77 |

Please examine the following record next.
Exam item: Recorded pEC50 of CN(C)CCN(C)C(=O)c1ccc(N2CCC(CC3CCN(C(=O)[C@](O)(c4ccccc4)C(F)(F)F)CC3)CC2)cc1Cl [Example 4-13] , please.
Marked response: 7.68
